Data origin, for the record: paper PMC4186968

# TARGET_OR_TEST_SYSTEM: T1, Nrd1p CID (residues 1-153) (S. cerevisiae, UniProt P53617 1-153)
# T1 chain: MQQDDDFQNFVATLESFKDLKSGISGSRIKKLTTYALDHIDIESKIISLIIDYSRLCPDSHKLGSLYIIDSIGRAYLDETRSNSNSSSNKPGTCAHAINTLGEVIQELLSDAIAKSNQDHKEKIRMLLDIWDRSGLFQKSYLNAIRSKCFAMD
# ASSAY_REMARKS: FP
Where no end group is shown, it is not given here.
QUANTITY_NAME: Kd (µM)

DDDEDGANPYTL (not fully specified (N-terminus); also: FAM label (position not given here)) [Trf4p NIM peptide with alanine at Tyr579] ... 263
DDDRDGYNPYTL [Trf4p NIM peptide with Glu576 changed to arginine] ... 4.6
